Each record here notes measured TGI.
Test system: SK-MEL-2 melanoma
assay_details: NCI tumour cell line growth inhibition, 48 h

{"compound": "N#Cc1c(-c2ccccc2)c(CN2CCCCC2)c(=O)n2c1[nH]c1ccccc12", "TGI": "> 100 µM"}
{"compound": "Cc1ccc(C(=O)N/N=C(\\N=Nc2ccc(C(=O)O)cc2)c2ccc(N(CCC#N)CCC#N)cc2C)cc1", "TGI": "> 100 µM"}
{"compound": "NS(=O)(=O)c1ccc(/C=C/c2ccc(O)cc2)cc1", "TGI": "60.3 µM"}
{"compound": "CCOc1ccc(N/C(=C(/C(Cl)=C(/Cl)NC(C)(C)C)[N+](=O)[O-])n2nnc3ccccc32)cc1", "TGI": "> 100 µM"}
{"compound": "COc1ccc2nc3cccc([N+](=O)[O-])c3c(NCCCO)c2c1", "TGI": "0.00376 µM"}

QUERY: Requested field: TGI. Item: COC1=C(C)C(=O)c2c(cc3c(c2O)C(C)(CCC=C(C)C)C(C)O3)C1=O (stereo not given)
RESULT: > 60.8 µM

QUERY: Requested field: TGI. Item: Cc1[nH]c(=O)nc(NNCc2ccc(Cl)cc2)c1C(=O)Nc1ccc(Cl)cc1
RESULT: > 100 µM

QUERY: Requested field: TGI. Item: Cc1cnc2sn(-c3ccc(Br)cc3)c(=O)c2c1
RESULT: > 100 µM

QUERY: Requested field: TGI. Item: O=S(=O)(c1cccc2c(I)cccc12)N1CCCNCC1
RESULT: 33.6 µM

QUERY: Requested field: TGI. Item: BrCC[N+]12CC[N+](CCBr)(CC1)C2
RESULT: > 100 µM
